Listed here are compounds together with their documented pKi.
molecular target: PHF tau (Homo sapiens, UniProt P10636); type: binding
Sequence (P10636 623-695 limits assumed): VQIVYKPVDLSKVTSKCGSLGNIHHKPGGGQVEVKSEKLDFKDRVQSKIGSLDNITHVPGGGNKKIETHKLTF
As a rule, pKi stands for the negative log10 of the concentration, concentration in M.

FCCC1CCN(c2ccn3c(n2)nc2ccccc23)CC1 [T808] | 8.03

Ask: pKi lookup needed for [18F]c1ccc(-c2ccc3c(c2)[nH]c2ccncc23)cn1 [T807] , thanks.
Reply: 8.96

====

# Ki per entry for amyloid plaques (Homo sapiens, UniProt P05067)

Worked cases, answers included:
COc1ccc(-c2ccc3c(c2)[nH]c2ccncc23)cc1 [TAU7] | 0.0049 µM
COc1ccc(-c2csc(NN=Cc3ccccc3)n2)cc1 [TAU4] | > 4.4 µM
COc1ccc(-c2ccc3c(c2)[nH]c2ccncc23)cn1 [TAU6] | > 4.4 µM

Ask: // Ki lookup, key: Cc1c(OCC(F)(F)F)ccnc1C[S+]([O-])c1nc2ccccc2[nH]1 (stereo not drawn) [Lansoprazole]
Reply: > 4.4 µM

Ask: Can you check COc1ccc(-c2csc(NN=Cc3ccccn3)n2)cc1 [TAU5] next?
Reply: > 4.4 µM

Ask: Please answer likewise for FCCC1CCN(c2ccn3c(n2)nc2ccccc23)CC1 [T808]
Reply: > 4.4 µM

Ask: Next entry: COc1ccc(CCN2CCC(Nc3nc4ccccc4n3Cc3ccc(F)cc3)CC2)cc1 [Astemizole]
Reply: > 4.4 µM

Ask: Same read-out for COC(=O)c1ccc(-c2ccc3c(c2)[nH]c2ccncc23)cn1 [TAU8] ?
Reply: > 4.4 µM

Ask: Next: [18F]c1ccc(-c2ccc3c(c2)[nH]c2ccncc23)cn1 [T807]
Reply: 0.247 µM

====

# reported inhibition at 1 µM; entries follow
target: Aβ (Homo sapiens, UniProt P05067); assay: In vitro autoradiography binding inhibition of [11C]PiB on human AD brain slices; settings: read-out: % Block ± SD of tracer binding
Sequence (P05067 672-711 limits assumed): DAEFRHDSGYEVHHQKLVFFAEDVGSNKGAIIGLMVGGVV

COc1ccc(-c2ccc3c(c2)[nH]c2ccncc23)cc1 [TAU7] | 0%
COc1ccc(-c2ccc3c(c2)[nH]c2ccncc23)cn1 [TAU6] | 0%
FCCC1CCN(c2ccn3c(n2)nc2ccccc23)CC1 [T808] | 17%
[18F]c1ccc(-c2ccc3c(c2)[nH]c2ccncc23)cn1 [T807] | 11%

// next entry
Ask: Entry COC(=O)c1ccc(-c2ccc3c(c2)[nH]c2ccncc23)cn1 [TAU8] : reported inhibition at 1 µM = ?
Reply: 0%

====

List of Ki tested on PHF tau (Homo sapiens).
Output spec: scalar in nM, unitless text.

[11CH3]Nc1ccc(-c2nc3ccc(O)cc3s2)cc1 | 129

Please look at the following molecule next.
Ask: Entry `COc1ccc(-c2ccc3c(c2)[nH]c2ccncc23)cc1` : reported Ki = ?
Reply: 14

====

Ki values, listed per item
biological target: PHF tau (Homo sapiens)

COc1ccc(-c2csc(NN=Cc3ccccn3)n2)cc1 | > 4 µM

Ask: Given the compound `COc1ccc(CCN2CCC(Nc3nc4ccccc4n3Cc3ccc(F)cc3)CC2)cc1` , what is its reported Ki?
Reply: > 4 µM

Ask: Okay, and Cc1c(OCC(F)(F)F)ccnc1C[S+]([O-])c1nc2ccccc2[nH]1 (stereo not drawn) ?
Reply: > 4 µM

====

As shown below, each of these compounds has a reported Ki value.
biological target: PHF tau (Homo sapiens, UniProt P10636)

Ask: Give the measured Ki of `COC(=O)c1ccc(-c2ccc3c(c2)[nH]c2ccncc23)cn1` .
Reply: > 4 µM

Ask: Then this compound: `COc1ccc(-c2ccc3c(c2)[nH]c2ccncc23)cn1`
Reply: > 4 µM

Ask: For `COc1ccc(-c2csc(NN=Cc3ccccc3)n2)cc1` then?
Reply: > 4 µM
